# SYSTEM: T1, hu N(A2-B2)A-avi-His (human, biotin on the avi tag where used biotinylated)
# T1 construct: chimeric soluble antigen; also called hu N(A2-B2)A-avi-His B; human CEA (A2 domain)
# T1 chain: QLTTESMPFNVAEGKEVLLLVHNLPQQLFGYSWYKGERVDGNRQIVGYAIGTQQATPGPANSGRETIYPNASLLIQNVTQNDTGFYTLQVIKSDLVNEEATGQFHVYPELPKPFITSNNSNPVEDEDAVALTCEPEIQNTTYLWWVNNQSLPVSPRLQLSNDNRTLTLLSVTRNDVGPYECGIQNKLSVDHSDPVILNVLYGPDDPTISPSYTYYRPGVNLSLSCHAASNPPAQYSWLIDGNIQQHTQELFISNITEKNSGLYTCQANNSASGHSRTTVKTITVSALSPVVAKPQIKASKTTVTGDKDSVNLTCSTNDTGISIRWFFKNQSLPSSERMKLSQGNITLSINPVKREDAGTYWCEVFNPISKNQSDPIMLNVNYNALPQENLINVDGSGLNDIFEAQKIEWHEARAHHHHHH
# PROCEDURE TEXT: SPR (Biacore T200), antigen on CM5 chip, Fab as analyte
Measured Kd of individual entries
All answers are understood in nM, so give the number only.

P1AE4141 (Fab, V domains shown, Fab fragment; also called Fab derived from P1AE2179) VH: EVQLLESGGGLVQPGGSLRLSCAASGFTFTDYYMNWVRQAPGKGLEWVGFIGNKANGYTTEYSASVKGRFTISRDKSKNTLYLQMNSLRAEDTAVYYCARDRGLRFYFDYWGQGTTVTVSS VL: QTVLTQSPATLSLSPGERATLSCRASSSVTYIHWYQQKPGSSPKSWIYATSNLASGIPARFSGSGSGTDYTLTISSLEPEDFAVYYCQHWSSKPPTFGQGTKLEIK
1.83

Attention now turns to another entry.
Entry P1AE0289 CEA (A5B7) Fab (parental murine antibody) (Fab, V domains shown, Fab fragment) VH: EVKLVESGGGLVQPGGSLRLSCATSGFTFTDYYMNWVRQPPGKALEWLGFIGNKANGYTTEYSASVKGRFTISRDKSQSILYLQMNTLRAEDSATYYCTRDRGLRFYFDYWGQGTTLTVSS VL: QTVLSQSPAILSASPGEKVTMTCRASSSVTYIHWYQQKPGSSPKSWIYATSNLASGVPARFSGSGSGTSYSLTISRVEAEDAATYYCQHWSSKPPTFGGGTKLEIK has what Kd?
0.559
